target.entity: IL-17RA/IL17RC dimerization induced by IL-17A (Homo sapiens)
Sequence (Q16552 24-155): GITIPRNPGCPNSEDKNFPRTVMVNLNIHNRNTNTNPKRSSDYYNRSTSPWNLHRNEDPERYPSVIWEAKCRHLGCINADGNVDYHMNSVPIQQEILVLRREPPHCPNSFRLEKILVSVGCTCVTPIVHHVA
method: IL-17RA/IL17RC dimerization assay in response to IL-17A (PathHunter Cytokine Receptor Assay)
Type: cell-based
stated.conditions: IL-17A at EC80; read-out: IC50 in IL-17RA/IL7RC dimerization assay
Residues, ends and D or L forms follow the SMILES beside them.
# maps each entry to its IC50

Answered examples (3):
# molecule, endpoint.label, endpoint.result
data = [
    ("CC[C@H](C)[C@H](NC(C)=O)C(=O)N[C@@H](Cc1c[nH]cn1)C(=O)N[C@H](C(=O)N[C@H](C(=O)N[C@H](C(=O)N1CCC[C@H]1C(=O)N[C@@H](C)C(=O)N[C@@H](CC(=O)O)C(=O)NCC(=O)N[C@@H](Cc1c[nH]c2ccccc12)C(=O)N[C@@H](CC(=O)O)C(=O)N[C@@H](Cc1c[nH]c2ccccc12)C(=O)N[C@H](C(=O)N[C@@H](CC(N)=O)C(=O)N[C@@H](CCCCN)C(N)=O)[C@@H](C)CC)[C@@H](C)CC)[C@@H](C)O)C(C)C [SEQ ID NO: 202] (Ac-IHVTIPADGWDWINK-NH2)", "IC50", "< 10 µM"),
    ("CC[C@H](C)[C@H](NC(C)=O)C(=O)N[C@@H](Cc1c[nH]cn1)C(=O)N[C@H](C(=O)N[C@H](C(=O)N[C@H](C(=O)N1CCC[C@H]1C(=O)N[C@@H](C)C(=O)N[C@@H](CC(=O)O)C(=O)N[C@@H](CC(C)C)C(=O)N[C@@H](Cc1ccccc1)C(=O)N[C@@H](CC(=O)O)C(=O)N[C@@H](Cc1c[nH]c2ccccc12)C(=O)N[C@H](C(=O)N[C@@H](CC(N)=O)C(=O)N[C@@H](CCCCN)C(N)=O)[C@@H](C)CC)[C@@H](C)CC)[C@@H](C)O)C(C)C [SEQ ID NO: 207] (Ac-IHVTIPADLFDWINK-NH2)", "IC50", "< 10 µM"),
    ("CC[C@H](C)[C@H](NC(=O)[C@@H](NC(=O)[C@@H](NC(=O)[C@H](Cc1c[nH]cn1)NC(=O)[C@@H](NC(C)=O)C(C)C)C(C)C)[C@@H](C)O)C(=O)N1CCC[C@H]1C(=O)N[C@@H](C)C(=O)N[C@@H](CC(=O)O)C(=O)N[C@@H](CC(C)C)C(=O)N[C@@H](Cc1c[nH]c2ccccc12)C(=O)N[C@@H](CC(N)=O)C(=O)N[C@@H](Cc1c[nH]c2ccccc12)C(=O)N[C@H](C(=O)N[C@@H](CCCNC(=N)N)C(=O)N[C@@H](CCCNC(=N)N)C(N)=O)C(C)C [SEQ ID NO: 119] (Ac-VHVTIPADLWNWVRR-NH2)", "IC50", "< 0.5 µM"),
]

--- query ---
Problem: Requested read-out IC50, target or system IL-17RA/IL17RC dimerization induced by IL-17A (Homo sapiens), entry CC[C@H](C)[C@H](NC(=O)[C@H](CCC(N)=O)NC(=O)[C@H](Cc1ccccc1)NC(=O)[C@H](Cc1c[nH]cn1)NC(=O)[C@@H](NC(C)=O)C(C)C)C(=O)N1CCC[C@H]1C(=O)N[C@@H](CCC(N)=O)C(=O)N[C@@H](CC(=O)O)C(=O)N[C@@H](CC(C)C)C(=O)N[C@@H](Cc1ccc(O)cc1)C(=O)N[C@@H](CC(N)=O)C(=O)N[C@@H](Cc1ccccc1)C(=O)N[C@@H](Cc1ccccc1)C(=O)N[C@@H](CCCNC(=N)N)C(=O)N[C@@H](CCCNC(=N)N)C(N)=O [SEQ ID NO: 153] (Ac-VHFQIPQDLYNFFRR-NH2)
Solution: < 0.5 µM
